Measured inhibition by item
# SYSTEM NAME: GABA-A receptor; anion channel (Rattus norvegicus) (UniProt O09028+P15431+P18506+P18508+P19969+P20236+P23574+P23576+P28471+P28473+P30191+P62813+P63079+P63138+Q91ZM7+Q9ES14)
# EXPERIMENT: In vitro percent inhibition of [3H]diazepam binding to rat GABA-A benzodiazepine receptor at 1 uM
# Format: protein-complex assay

STRUCTURE SMILES STRING: Cc1nnc2ccc(-c3ccc(F)cc3)nn12
inhibition [%]: 64

STRUCTURE SMILES STRING: Cc1nnc2ccc(-c3cccc(F)c3)nn12
inhibition [%]: 43

STRUCTURE SMILES STRING: Cc1nnc2ccc(-c3cccc(N)c3)nn12
inhibition [%]: 58

STRUCTURE SMILES STRING: Cc1nnc2ccc(-c3cccc(Cl)c3)nn12
inhibition [%]: 61

STRUCTURE SMILES STRING: ClCc1nnc2ccc(-c3ccccc3)nn12
inhibition [%]: 47

STRUCTURE SMILES STRING: COc1cccc(-c2ccc3nncn3n2)c1
inhibition [%]: 29

---

# SYSTEM NAME: GABA-A receptor; anion channel (Rattus norvegicus) (UniProt O09028+P15431+P18506+P18508+P19969+P20236+P23574+P23576+P28471+P28473+P30191+P62813+P63079+P63138+Q91ZM7+Q9ES14)
# EXPERIMENT: In vitro inhibition of [3H]diazepam binding towards Benzodiazepine receptor at 1 uM
# Assay type: protein-complex assay
ASSAY ENDPOINT: inhibition

STRUCTURE SMILES STRING: Cc1cc2nnc(C)n2nc1-c1cccc(F)c1
VALUE: < 10%

STRUCTURE SMILES STRING: COCc1nnc2ccc(-c3ccccc3)nn12
VALUE: < 10%

STRUCTURE SMILES STRING: Cc1nnc2ccc(-c3cccc(F)c3)nn12
VALUE: 47%

STRUCTURE SMILES STRING: Cc1nnc2ccc(-c3cccc(N)c3)nn12
VALUE: 60%

STRUCTURE SMILES STRING: CCCC(C)(COC(N)=O)COC(N)=O
VALUE: 1.8%

STRUCTURE SMILES STRING: ClCc1nnc2ccc(-c3ccccc3)nn12
VALUE: 45%

STRUCTURE SMILES STRING: Cc1nnc2ccc(-c3ccc(Cl)cc3)nn12
VALUE: 28%

---

# SYSTEM NAME: GABA-A receptor; anion channel (Rattus norvegicus) (UniProt O09028+P15431+P18506+P18508+P19969+P20236+P23574+P23576+P28471+P28473+P30191+P62813+P63079+P63138+Q91ZM7+Q9ES14)
# EXPERIMENT: In vitro inhibition of [3H]diazepam binding towards Benzodiazepine receptor at 1 uM
# Type: protein-complex assay

STRUCTURE SMILES STRING: c1ccc(-c2ccc3nnc(-c4ccccc4)n3n2)cc1
VALUE OPERATOR: =
inhibition [%]: 74
//
STRUCTURE SMILES STRING: Cc1cc2nncn2nc1-c1cccc(C(F)(F)F)c1
VALUE OPERATOR: =
inhibition [%]: 21
//
STRUCTURE SMILES STRING: Cc1cc(-c2ccc(F)cc2)nn2c(C)nnc12
VALUE OPERATOR: <
inhibition [%]: 10
//
STRUCTURE SMILES STRING: FC(F)(F)c1cccc(-c2ccc3nncn3n2)c1
VALUE OPERATOR: =
inhibition [%]: 55
//
STRUCTURE SMILES STRING: Clc1ccc(-c2ccc3nncn3n2)cc1
VALUE OPERATOR: <
inhibition [%]: 10
//
STRUCTURE SMILES STRING: COc1cccc(-c2ccc3nncn3n2)c1
VALUE OPERATOR: =
inhibition [%]: 34
//
STRUCTURE SMILES STRING: Clc1cccc(-c2ccc3nncn3n2)c1
VALUE OPERATOR: =
inhibition [%]: 30
//
STRUCTURE SMILES STRING: Cc1cccc(-c2ccc3nnc(C)n3n2)c1
VALUE OPERATOR: =
inhibition [%]: 68
